Target: T1, KDR domain 1 (D1) fused to GST
T1 chain: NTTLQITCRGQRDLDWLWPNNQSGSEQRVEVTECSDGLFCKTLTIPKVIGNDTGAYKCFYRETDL
Experiment: ELISA-type binding assay
Details: chain shown with the change; GST-KDR-D1 100 μg/mL; parent: est. 0.51; read off a plot
Measured response values are reported for all entries that follow.
readout: response (OD450)

binder	readout	result
PCGPCSEREKHLFVQDPQTCKCSCKNTDSRCKARQLELNERTCRCDKPRR [VEGF165 heparin-binding domain (HBD), wild type R124E]	response	0.2
PCGPCSEERKHLFVQDPQTCKCSCKNTDSRCKARQLELNERTCRCDKPRR [VEGF165 heparin-binding domain (HBD), wild type R123E]	response	0.14
PCGPCSEEEEHLFVQDPQTCKCSCKNTDSRCKARQLELNERTCRCDKPRR [VEGF165 heparin-binding domain (HBD), wild type R123E; R124E; K125E]	response	0.06
PCGPCSERREHLFVQDPQTCKCSCKNTDSRCKARQLELNERTCRCDKPRR [VEGF165 heparin-binding domain (HBD), wild type K125E]	response	0.31
